Test protocol: physchem
Assay type: physicochemical
Condition context: 25 °C, pH 7.4, aqueous buffer, kinetic solubility, pH 7.4, HPLC method
Metric: solubility (µM)
Could you give me the number in µM? Just the number is fine.

Determine its reported solubility: CN(C)c1cccc(-c2ccc3nc(N)n(-c4ccc(C(F)(F)F)cc4)c(=O)c3c2)c1
20

Determine its reported solubility: CN(C)C(=O)c1cccc(-c2ccc3nc(N)n(-c4ccc(C(F)(F)F)cc4)c(=O)c3c2)c1
46

Determine its reported solubility: Nc1nc2ccc(-c3cccc(S(=O)(=O)C4CC4)c3)cc2c(=O)n1-c1ccc(C(F)(F)F)cc1
66

Determine its reported solubility: COc1cncc(-c2ccc3nc(N)n(-c4ccc(C(F)(F)F)cc4)c(=O)c3c2)c1
40

Determine its reported solubility: Nc1nc2ccc(-c3cccc(C(=O)N4CCSCC4)c3)cc2c(=O)n1-c1ccc(C(F)(F)F)cc1
46

Source: paper PMC7359024
